Below is a list of entries, each paired with its recorded melting point value.

Some compounds with recorded melting point:
[[record]]
smiles_structure = "Cc1cc(F)ccc1C1CCN(C(=O)c2cccc(N3CCN(C)CC3)n2)CC1"
quantity = "melting point"
assay_value = "156.4 to 157.7 °C"

[[record]]
smiles_structure = "O=C(c1cccc(N2CCCNCC2)n1)N1CCC[C@@H](Oc2cccc(F)c2)C1"
quantity = "melting point"
assay_value = "172 to 174 °C"


Kindly review the next compound as well.
Query: Which measured melting point value corresponds to `CN1CCN(c2cccc(C(=O)N(C)Cc3cccc(F)c3)n2)CC1` ?
Reply: 77 to 78 °C

---

Where a name gives a salt, the structure may show the parent alone.
Quantity: melting point

Example compounds with recorded melting point:
[[record]]
compound = "Cc1cccc(F)c1C1CCN(C(=O)c2cccc(C3CCN(C)C3)n2)CC1 (stereo not drawn)"
quantity = "melting point"
assay_value = "122.6 to 123.2 °C"

[[record]]
compound = "CN1CCN(c2cccc(C(=O)N3CC=C(c4ccccc4F)CC3)n2)CC1 (as salt: hydrochloride)"
quantity = "melting point"
assay_value = "176.7 to 177.2 °C"

[[record]]
compound = "Cc1cccc(O[C@H]2CCCN(C(=O)c3cccc(N4CCCNCC4)n3)C2)c1"
quantity = "melting point"
assay_value = "184 to 185.6 °C"


Query: Which melting point is listed for `Cc1cccc(O[C@H]2CCN(C(=O)c3cccc(N4CCCNCC4)n3)C2)c1` ?
Reply: 116 to 118 °C

Query: Fill in: melting point of `Cc1ccccc1[C@@H]1CCCCN1C(=O)c1cccc(N2CCN(C)CC2)n1` is ___
Reply: 136.7 to 137.2 °C

---

Counter-ions that a name gives are not always drawn.
The following molecules are shown together with reported melting point values.

Look over these answered cases.
[[record]]
molecule = "CN1CCN(c2cccc(C(=O)N3CCC[C@H](Oc4cccc(Cl)c4)C3)n2)CC1"
quantity = "melting point"
assay_value = "78 to 80 °C"

[[record]]
molecule = "Cc1ccc(O[C@H]2CCN(C(=O)c3cccc(N4CCCNCC4)n3)C2)cc1"
quantity = "melting point"
assay_value = "90 to 92 °C"


Query: # melting point lookup, item `COc1ccccc1CN(C)C(=O)c1cccc(N2CCN(C)CC2)n1`
Reply: 75 to 76 °C

Query: Recorded melting point of CN1CCN(c2cccc(S(=O)(=O)N3CCCCC3c3ccccc3F)n2)CC1 (stereo not shown) , please.
Reply: 195.3 to 196.4 °C

Query: Please report the recorded melting point for `Cc1ccccc1O[C@H]1CCCN(C(=O)c2cccc(N3CCCNCC3)n2)C1` .
Reply: 118 to 119.7 °C

Query: Value lookup for melting point; key = Cc1ccccc1OC1CCN(C(=O)c2cccc(C3CCN(C)CC3)n2)CC1 (as salt: hydrochloride)
Reply: 118 to 120 °C

Query: What melting point value was documented for this molecule, `Cc1ccc(O[C@@H]2CCN(C(=O)c3cccc(N4CCCN(C)CC4)n3)C2)cc1` ?
Reply: 108 to 110 °C

---

Below, each of the molecules is paired with its reported inhibition at 1 µM value.
- Target under test: cloned human 5-HT6 receptor (Homo sapiens, UniProt P50406)
- Construct: host or cells: HeLa cells, G-418 selection, membrane preparation
- Sequence (P50406 whole entry): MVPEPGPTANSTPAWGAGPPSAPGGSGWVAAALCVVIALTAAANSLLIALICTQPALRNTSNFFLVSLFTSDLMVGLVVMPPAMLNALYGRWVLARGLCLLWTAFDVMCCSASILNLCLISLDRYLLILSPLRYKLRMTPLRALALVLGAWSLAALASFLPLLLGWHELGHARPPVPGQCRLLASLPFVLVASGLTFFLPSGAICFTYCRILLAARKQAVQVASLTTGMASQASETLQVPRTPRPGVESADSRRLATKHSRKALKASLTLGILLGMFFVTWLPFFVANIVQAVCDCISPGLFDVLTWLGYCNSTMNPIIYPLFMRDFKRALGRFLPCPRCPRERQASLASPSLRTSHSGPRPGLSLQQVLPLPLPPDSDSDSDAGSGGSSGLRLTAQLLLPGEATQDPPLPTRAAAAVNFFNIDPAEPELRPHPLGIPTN
- Assay overview: 5-HT6 Receptor Binding Assay ([3H]-LSD radioligand, SPA)
- Run conditions: read-out: 5HT6 % inh @ 1 uM
Provide only the numeric value, understood in %.

[[record]]
molecule = "Cc1cccc(CN(C)C(=O)c2cccc(N3CCN(C)CC3)n2)c1 [Example 73]"
target_under_test = "cloned human 5-HT6 receptor (Homo sapiens, UniProt P50406)"
quantity = "inhibition at 1 µM"
units_text = "%"
assay_value = 91.9

[[record]]
molecule = "O=C(c1cccc(N2CCCNCC2)n1)N1CCC[C@@H](Oc2ccccc2F)C1 [Example 47]"
target_under_test = "cloned human 5-HT6 receptor (Homo sapiens, UniProt P50406)"
quantity = "inhibition at 1 µM"
units_text = "%"
assay_value = 90.6


Query: Value lookup for inhibition at 1 µM; key = CN1CCCN(c2cccc(C(=O)N3CCCC[C@@H]3c3cccc(F)c3)n2)CC1 [Example 80]
Reply: 91.7

---

- Target under test: cloned human 5-HT6 receptor (Homo sapiens, UniProt P50406)
- Construct: host or cells: HeLa cells, G-418 selection, membrane preparation
- Assay overview: 5-HT6 Receptor Binding Assay ([3H]-LSD radioligand, SPA)
- Run conditions: read-out: 5HT6 % inh @ 1 uM
Quantity: inhibition at 1 µM (%)
Dear colleague, please return just the value in %, with no unit written.

Worked examples, 5 compounds total:
[[record]]
compound = "Cc1ccc([C@@H](C)N(C)C(=O)c2cccc(N3CCN(C)CC3)n2)cc1"
assay_value = 73.8

[[record]]
compound = "CN1CCN(c2cccc(C(=O)N3CCCC(c4ccccc4F)C3)n2)CC1 (centres unmarked)"
assay_value = 88.9

[[record]]
compound = "Cc1ccc(F)cc1C1CCN(C(=O)c2cccc(C3CCN(C)C3)n2)CC1 (centres unmarked)"
assay_value = 97.7

[[record]]
compound = "Cc1c(F)cccc1C1CCN(C(=O)c2cccc(N3CCN(C)CC3)n2)CC1"
assay_value = 101

[[record]]
compound = "CN1CCN(c2cccc(C(=O)N3CCCC[C@H]3c3ccccc3F)n2)CC1"
assay_value = 90.7


Query: // lookup inhibition at 1 µM for `CN1CCN(c2cccc(C(=O)N3CCC[C@H](Oc4cccc(F)c4)C3)n2)CC1`
Reply: 97.3

Query: Fill blank: measured inhibition at 1 µM of the compound `Cc1cccc(C2CN(C(=O)c3cccc(N4CCN(C)CC4)n3)C2)c1` is ____.
Reply: 84.8

Query: Can you look up the measured inhibition at 1 µM of `CN1CC=C(c2cccc(C(=O)N3CCC(Oc4ccccc4Cl)CC3)n2)CC1` for me?
Reply: 102

Query: Can you look up the measured inhibition at 1 µM of `CN1CCCN(c2cccc(C(=O)N3CC[C@H](Oc4ccccc4Cl)C3)n2)CC1` for me?
Reply: 97.7

Query: Given the entry `CN1CCCN(c2cccc(C(=O)N3CCCC[C@@H]3c3ccccc3F)n2)CC1` , report its measured inhibition at 1 µM.
Reply: 92.3

Query: Name the recorded inhibition at 1 µM for `CN1CC=C(c2cccc(C(=O)N3CCC(Oc4ccccc4F)CC3)n2)CC1` .
Reply: 95.3

---

Overview of recorded melting point for various molecules

Query: Recorded melting point for Cc1ccc([C@H]2CCCCN2C(=O)c2cccc(N3CCN(C)CC3)n2)cc1 [Example 66] , please?
Reply: 143.3 to 144 °C

Query: Consider the molecule O=C(c1cccc(N2CCNCC2)n1)N1CCCCC1c1ccc(F)cc1 (stereo not shown) [Example 29] and give its measured melting point.
Reply: 102 to 103.2 °C

Query: Need melting point of O=C(c1cccc(N2CCCNCC2)n1)N1CCC[C@H](Oc2ccc(F)cc2)C1 [Example 39] , thanks.
Reply: 107.9 to 109 °C

Query: Report melting point for Cc1ccc(F)cc1C1CCN(C(=O)c2cccc(N3CCN(C)CC3)n2)CC1 [Example 103] please.
Reply: 85.1 to 86.2 °C
